Reported pIC50 values are given for each entry in this list.
target: GPR3 (Homo sapiens); construct: expressed in transfected cells; host or cells: CHO cells; assay: GPR3 antagonist functional cAMP assay (LANCE Ultra cAMP TR-FRET, CHO cells stably expressing GPR3); type: cell-based; details: CHO cells stably expressing GPR3, cAMP assay
Sequence (P46089 whole entry, species assumed): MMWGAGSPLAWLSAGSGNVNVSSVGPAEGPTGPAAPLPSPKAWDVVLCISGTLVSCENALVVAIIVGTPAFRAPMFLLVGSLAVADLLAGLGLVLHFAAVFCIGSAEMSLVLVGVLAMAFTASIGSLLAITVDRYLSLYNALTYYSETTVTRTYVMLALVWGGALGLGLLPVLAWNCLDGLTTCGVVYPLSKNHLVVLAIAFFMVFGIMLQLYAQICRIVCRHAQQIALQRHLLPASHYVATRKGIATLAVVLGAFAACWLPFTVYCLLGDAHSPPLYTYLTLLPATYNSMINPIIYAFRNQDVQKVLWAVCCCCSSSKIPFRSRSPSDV
pIC50: −log10 of the molar value.

Need pIC50, item CCn1cc(-c2nc3c(nc2N2CCN(C(=O)c4ccc(Cl)c(C)c4)CC2)CCN(C(C)=O)C3)cn1 4.52 to 6.00

Here is the next compound: CCn1cc(-c2nc3cc(C(O)C(C)(C)O)ncc3nc2N2CCC(Oc3ccc(F)cc3F)CC2)cn1 (single isomer, unassigned) [Compound 589] 6.00 to 7.00

Here is the next compound: CC(=O)N1CCc2nc(N3CCN(Cc4cccc(=O)[nH]4)CC3)c(-c3cnn(C)c3)nc2C1 ≤ 4.52

Here is the next compound: CC(=O)N1CCc2nc(N3CCN(Cc4ccn[nH]4)CC3)c(-c3cnn(C)c3)nc2C1 ≤ 4.52

Here is the next compound: CC(C)(O)C(O)c1cc2nc(-c3cnn(C(F)F)c3)c(N3CCC(Oc4ccc(F)cc4F)CC3)nc2cn1 (single isomer, unassigned) [Compound 584] 4.52 to 6.00

Here is the next compound: Cn1cc(-c2nc3cnc(C(C)(O)CO)cc3nc2N2CCC(Oc3ccc(F)cc3F)CC2)cn1 (stereo not drawn) 4.52 to 6.00
